assay target: Sodium channel alpha subunits; brain (Types I, II, III) (Rattus norvegicus, UniProt P04775+P04774+P08104)
assay: Inhibition of [3H]- batrachotoxin binding to sodium channel in rat neocortical membrane
Type: cell membranes
Class assignment keyed on Ki, ranges label 0 (below 200 nM), label 1 (200 nM to below 400 nM), label 2 (400 nM or more)

CC1CCCC(C)N1CCCNC(=O)C(c1ccc(Cl)cc1)c1ccc(Cl)cc1 (stereo not given)    label 0

stdin: Which bin should I file CC1CCCC(C)N1CCCNC(=O)Cc1ccccc1 (stereo not given) under?
stdout: label 2

stdin: Which bin should I file "Cc1cccc(C)c1NC(=O)CN1CCN(CCCC(c2ccc(F)cc2)c2ccc(F)cc2)CC1" under?
stdout: label 0

stdin: Which bin should I file CC1CCCC(C)N1CCCNC(=O)C1(c2ccccc2)CCCCC1 (stereo not given) under?
stdout: label 1

stdin: Which bin should I file COc1ccc(C(C(=O)NCCCN2C(C)CCCC2C)c2ccc(OC)c3ccccc23)c2ccccc12 (stereo not given) under?
stdout: label 1

stdin: Which bin should I file CC1CCCC(C)N1CCCNC(=O)Cc1cccc2ccccc12 (stereo not given) under?
stdout: label 2

stdin: Which bin should I file CC1CCCC(C)N1CCCNC(=O)C1c2ccccc2-c2ccccc21 (stereo not given) under?
stdout: label 2

stdin: Which bin should I file CC1CCCC(C)N1CCCNC(=O)C(c1ccccc1)c1ccccc1 (stereo not given) under?
stdout: label 1

stdin: Which bin should I file CC1CCCC(C)N1CCCNC(=O)C(c1ccccc1Cl)c1ccccc1Cl (stereo not given) under?
stdout: label 0

FYI, the data here is from ChEMBL document CHEMBL1127729.
